B1: Unconventional myosin-Ie, residues 1051 to 1108; numbered along this chain, Q12965 (parent)
chain: PQVPQCKALYAYDAQDTDELSFNANDIIDIIKEDPSGWWTGRLRGKQGLFPNNYVTKI

Variants of: B1
Test: abundance fitness (aPCA) (normalised: wild type 0, dead -1); higher = more abundant; growth selection in yeast, the domain comes from the species named
Details: Homo sapiens
endpoint name: abundance fitness
Reply with the value as a number alone.

Solved entries:
sequence record	abundance fitness
PQVPQCKALKAYDAQDTDELSFNANDIIDIIKEDPSGWWTGRLRGKQGLFPNNYVTKI [Y10K]	-0.043
PQVPQCKALYAYDAQDTDELSFNANDIIDIIKEDPSGWWSGRLRGKQGLFPNNYVTKI [T40S]	-0.082
PQVPQCKALYAYDAQDTDELSFNANDIIDIIKEDPSGWWTGRLRIKQGLFPNNYVTKI [G45I]	-0.639
PQVPQCKALYAYDAQDPDELSFNANDIIDIIKEDPSGWWTGRLRGKQGLFPNNYVTKI [T17P]	-0.273
PQVPQCKALYAYDAQDTDELSFNANDIIDIIKEDPSGWWTGRLRGKQGLFRNNYVTKI [P51R]	-0.026
PQVPQCKALYAYDAQDTDELSFNANDIIDIIKEHPSGWWTGRLRGKQGLFPNNYVTKI [D34H]	-0.264

Req: For PQVPQCKALYAYDAQDTDELSFNANDIIDIIKEDPNGWWTGRLRGKQGLFPNNYVTKI [S36N] , write its abundance fitness.
Resp: -0.381

Req: Write down abundance fitness measured for item PQVPQCCALYAYDAQDTDELSFNANDIIDIIKEDPSGWWTGRLRGKQGLFPNNYVTKI [K7C]
Resp: -0.028

Req: Answer with reported abundance fitness of PQVPQCKAFYAYDAQDTDELSFNANDIIDIIKEDPSGWWTGRLRGKQGLFPNNYVTKI [L9F]
Resp: -0.743

Req: Provide abundance fitness value for the following variant: PQVPQCKALYAYPAQDTDELSFNANDIIDIIKEDPSGWWTGRLRGKQGLFPNNYVTKI [D13P]
Resp: -0.399

Req: Using known records, supply abundance fitness for PQVPQCKALYAYDAQDTDELSFNANDIIDWIKEDPSGWWTGRLRGKQGLFPNNYVTKI [I30W]
Resp: -0.967

# credit: the Human Domainome abundance scans (Beltran et al. 2025)
